Assayed target: T1, MICA.008.a3.T204-S297.C-terminal insert of N298.G299.S300.mIgG2a.Glyco17 (human; mouse, UniProt Q29983 204-297, engineered N-linked glycosylation site at inserted N298)
T1 construct: not shown: murine IgG2a Fc
T1 chain: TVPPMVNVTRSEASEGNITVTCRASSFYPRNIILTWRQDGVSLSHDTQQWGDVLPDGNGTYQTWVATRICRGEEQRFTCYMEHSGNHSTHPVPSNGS
Measurement description: ELISA, coated variant;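 also: ELISA with plates coated at 2 ug/ml with MICA*008 alpha 3 glycosylation variants as murine IgG2a Fc fusions, antibody binding detected by HRP anti-human IgG Fc and TMB absorbance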

Binder	binding result
7D4.6 (antibody, V domains shown, Mouse hybridoma antibody; constant regions differ by assay) VH: DVQLQESGPGLVKPSQSLSLTCTVTGYSITSDYAWNWIRQFPRNKLEWMGYINYSGTTNYNPSLKSRISITRDTSKNQFFLQLISVTTEDTATYYCSYYRYDGAWFPYWGQGTLVTVSA VL: DIQMTQSPASLSASVGETVTITCRASGNIHNYLAWYQQKQGKSPQLLVYNAIMLADGVPSRFSASGSGTQYSLKINSLQPEDFGSYYCQHFWSFPLTFGAGTKVEIK	binds
2E5.2.3 (antibody, V domains shown, Mouse hybridoma antibody; constant regions differ by assay) VH: QGQMQQSGAELVKPGASVKLSCKTSGFTFSDNYISWLKQKPGQSLEWIAWIYAGTGGTSYNQKFTAKAQLTVDTSSSTAYMQFSSLTTEDSAIYYCARHDYYGTSGAWFAYWGQGTLVTVSA VL: DVLMTQTPLSLPVSLGDQASLSCRSSQNIVHINGNTYLEWYLQKPGQSPKLLIYKVSNRFSGVPDRFSGSGSGTDFTLKISRVEAEDLGVYYCFQGSHVPWTFGGGTKVEIK	binds
1E6.1.3 (antibody, V domains shown, Mouse hybridoma antibody; constant regions differ by assay) VH: QVQLKESGPGLVAPSQSLSITCTVSGFSLTGSGVNWVRQPPGQGLEWLGMIWGDGNTDYNSALKSRLSISKDNSKSQVFLKMNSLQTDDTARYYCARGAHYGKRWYFDVWGAGTTVTVSS VL: DIQMTQTTFSLSASLGDRVTISCSASQGINNYLNWYQQRPDGTVKLLIYYTSTLPSGVPSRFSGSGSGTDYSLTISNLEPEDIASYYCQQYSKLPPTFGGGTKVEIK	binds
